Listed below: pIC50 values for each entry.
molecular target: benzodiazepine receptor; assay: Competitive inhibition of 3H-flunitrazepam binding to benzodiazepine receptor (cerebral cortical membranes); parameters: species or system bovine; conditions: 3H-flunitrazepam 0.7 nM; read-out: IC50 at the benzodiazepine receptor
pIC50: −log10 of the molar value.
value type: pIC50

- molecule: "O=c1cc(-c2ccccc2)oc2cc(O)cc(O)c12 [chrysin, 5,7-dihydroxyflavone]"
  tested system: "benzodiazepine receptor"
  experimental value: "5.52 to 6.15"
- molecule: "O=c1cc(-c2ccccc2)oc2ccccc12"
  tested system: "benzodiazepine receptor"
  experimental value: "5.52 to 6.15"
- molecule: "O=c1cc(-c2ccc(O)c(-c3c(O)cc(O)c4c(=O)cc(-c5ccc(O)cc5)oc34)c2)oc2cc(O)cc(O)c12"
  tested system: "benzodiazepine receptor"
  experimental value: 8.00
- molecule: "O=c1cc(-c2ccccc2)oc2c(Br)c(O)c(Br)c(O)c12 [6,8 dibromochrysin, 6,8-Dibromo-5,7-dihydroxyflavone]"
  tested system: "benzodiazepine receptor"
  experimental value: "5.52 to 6.15"
- molecule: "O=c1cc(-c2ccc(O)cc2)oc2cc(O)cc(O)c12 [Apigenin, 4', 5,7-trihydroxyflavone]"
  tested system: "benzodiazepine receptor"
  experimental value: "5.52 to 6.15"
- molecule: "O=c1cc(-c2ccccc2)oc2cc(Br)ccc12"
  tested system: "benzodiazepine receptor"
  experimental value: 7.30

* * *

This listing pairs compounds with measured IC50.
target: benzodiazepine receptor; experiment: Competitive inhibition of 3H-flunitrazepam binding to benzodiazepine receptor (cerebral cortical membranes); parameters: species or system bovine; settings: bovine brain membranes; 0.7 nM 3H-flunitrazepam; read-out: 3H Flunitrazepam binding IC50

- compound: "COc1cc(O)c2c(=O)cc(-c3ccccc3)oc2c1 [5 hydroxy 7 methoxyflavone, 5-hydroxy-7-methoxyflavone]"
  IC50 (µM): 46
- compound: "O=C1CC(c2ccccc2)Oc2ccccc21 (stereo not shown) [flavanone, reference compound]"
  IC50 (µM): 40
- compound: "O=c1cc(-c2ccccc2F)oc2cc(O)cc(O)c12 [2' fluorochrysin, 5,7-Dihydroxy-2'-fluoroflavone]"
  IC50 (µM): 8
- compound: "O=c1c(O[C@@H]2O[C@H](CO)[C@@H](O)[C@H](O)[C@H]2O)c(-c2ccc(O)c(O)c2)oc2cc(O)cc(O)c12 [Isoquercetin, reference compound]"
  IC50 (µM): 10
- compound: "O=c1cc(-c2ccccc2)oc2cc(O)cc(O)c12 [chrysin, 5,7-dihydroxyflavone]"
  IC50 (µM): 2
- compound: "O=c1cc(-c2ccccc2)oc2cc(Br)ccc12"
  IC50 (µM): 0.05

* * *

target: benzodiazepine receptor; test: Competitive inhibition of 3H-flunitrazepam binding to benzodiazepine receptor (cerebral cortical membranes); parameters: species or system bovine; details: bovine brain membranes; 0.7 nM 3H-flunitrazepam; read-out: 3H Flunitrazepam binding IC50
pIC50: −log10 of the molar value.
value type: pIC50

- compound: "O=c1cc(-c2ccc(O)cc2)oc2cc(O)cc(O)c12 [Apigenin, 4', 5,7-trihydroxyflavone]"
  value type: "pIC50"
  experimental value: 5.52
- compound: "O=c1cc(-c2ccccc2)oc2c(Br)c(O)c(Br)c(O)c12 [6,8 dibromochrysin, 6,8-Dibromo-5,7-dihydroxyflavone]"
  value type: "pIC50"
  experimental value: 6.15
- compound: "O=c1cc(-c2ccccc2)oc2ccccc12"
  value type: "pIC50"
  experimental value: 6.00
- compound: "O=c1c(O[C@@H]2O[C@H](CO)[C@@H](O)[C@H](O)[C@H]2O)c(-c2ccc(O)c(O)c2)oc2cc(O)cc(O)c12 [Isoquercitrin, reference compound]"
  value type: "pIC50"
  experimental value: 4.10
- compound: "O=c1cc(-c2ccc(O)c(-c3c(O)cc(O)c4c(=O)cc(-c5ccc(O)cc5)oc34)c2)oc2cc(O)cc(O)c12"
  value type: "pIC50"
  experimental value: 8.00
- compound: "C[C@@H]1O[C@@H](OC[C@H]2O[C@@H](Oc3c(-c4ccc(O)c(O)c4)oc4cc(O)cc(O)c4c3=O)[C@H](O)[C@@H](O)[C@@H]2O)[C@H](O)[C@H](O)[C@H]1O [Rutin, reference compound]"
  value type: "pIC50"
  experimental value: 4.22
- compound: "COc1cc(O)c2c(=O)cc(-c3ccc(OC)c(-c4c(O)cc(O)c5c(=O)cc(-c6ccc(O)cc6)oc45)c3)oc2c1"
  value type: "pIC50"
  experimental value: 5.30
- compound: "O=c1cc(-c2ccccc2Cl)oc2cc(O)cc(O)c12 [2' chlorochrysin, 5,7-Dihydroxy-2'-chloroflavone]"
  value type: "pIC50"
  experimental value: 5.05
